system: ACHN renal; test: NCI tumour cell line growth inhibition, 48 h
Recorded TGI for the following molecules
Record the value in µM, omitting the unit from your answer.

Below: 3 molecules and their reported TGI.
- molecule: "COC(=O)[C@@]12OC[C@]34[C@H]([C@@H](O)[C@@H]1O)[C@@]1(C)[C@H](O)C(=O)C=C(C)[C@@H]1C[C@H]3OC(=O)C(OC(C)=O)[C@@H]24 (stereo not given in full)"
  target-or-system: "ACHN renal"
  value-reported: 0.28
- molecule: "COc1cc2oc3cc(=O)cc4oc(-c5ccccc5)cc(c2c2c1CCC(c1ccccc1)O2)c43 (stereo not given)"
  target-or-system: "ACHN renal"
  value-reported: 61.9
- molecule: "CC(C)C1=CC23CCC4C(C)(C(=O)O)CCCC4(C)C2CC1C1C(=O)N(c2ccccc2N2C(=O)C4C5CC6C7(C)CCCC(C)(C(=O)O)C7CCC6(C=C5C(C)C)C4C2=O)C(=O)C13 (stereo not given)"
  target-or-system: "ACHN renal"
  value-reported: 21.8

Recorded TGI for `COc1cccc(-c2nn(-c3ccccc3)cc2-c2ccnc(NCCCNC(=O)Nc3ccc(Cl)c(Cl)c3)c2)c1` , please?
22.4
